B1: Pistol ribozyme (parent)
chain: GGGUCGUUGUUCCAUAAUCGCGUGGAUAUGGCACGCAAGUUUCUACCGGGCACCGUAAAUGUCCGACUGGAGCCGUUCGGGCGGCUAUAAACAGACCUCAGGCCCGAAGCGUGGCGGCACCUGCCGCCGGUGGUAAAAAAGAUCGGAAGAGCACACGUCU

Variants of: B1
procedure summary: aptazyme ON/OFF ratio, guanine; higher = stronger switching; co-transcriptional cleavage with and without guanine
parameter: aptazyme ON/OFF ratio
Number only, no unit.

INPUT: Please list aptazyme ON/OFF ratio recorded for the variant U7G U10C U11C C12A C13U
OUTPUT: 1.11

INPUT: Please list aptazyme ON/OFF ratio recorded for the variant U7A U8C G9U U11C C12A C13A
OUTPUT: 1.18

INPUT: Please list aptazyme ON/OFF ratio recorded for the variant U8G G9U U10A C12G C13U
OUTPUT: 1.23

INPUT: Please list aptazyme ON/OFF ratio recorded for the variant G9U U11A C12U
OUTPUT: 1.47

INPUT: Please list aptazyme ON/OFF ratio recorded for the variant U7C U8G G9U U10C U11G
OUTPUT: 1.23

INPUT: Please list aptazyme ON/OFF ratio recorded for the variant U7G U8C G9A U10A U11G C12A C13A
OUTPUT: 1.06

INPUT: Please list aptazyme ON/OFF ratio recorded for the variant U7C G9A U10C U11G C12G C13A
OUTPUT: 1.14

INPUT: Please list aptazyme ON/OFF ratio recorded for the variant U7G U8C G9A U11G C12A
OUTPUT: 1.1

INPUT: Please list aptazyme ON/OFF ratio recorded for the variant U7C U8A U10A U11G C12A
OUTPUT: 1.06

INPUT: Please list aptazyme ON/OFF ratio recorded for the variant U7G U8C G9C U10G U11A C12G C13A
OUTPUT: 1.07

INPUT: Please list aptazyme ON/OFF ratio recorded for the variant U7G U8C G9C
OUTPUT: 1.35

INPUT: Please list aptazyme ON/OFF ratio recorded for the variant U8C G9A U10A U11C C13U
OUTPUT: 1.06

INPUT: Please list aptazyme ON/OFF ratio recorded for the variant U8A G9C U10C U11G C12A C13G
OUTPUT: 1.08

INPUT: Please list aptazyme ON/OFF ratio recorded for the variant U8G U10C U11G C12A C13G
OUTPUT: 1.13

INPUT: Please list aptazyme ON/OFF ratio recorded for the variant U7A U8G G9U U10A C12U C13U
OUTPUT: 1.31

INPUT: Please list aptazyme ON/OFF ratio recorded for the variant U7A U8C G9A C13G
OUTPUT: 1.04

INPUT: Please list aptazyme ON/OFF ratio recorded for the variant U7G U8A U11C C12A C13A
OUTPUT: 1.23

INPUT: Please list aptazyme ON/OFF ratio recorded for the variant U7A G9A U11G C12U C13U
OUTPUT: 1.27

INPUT: Please list aptazyme ON/OFF ratio recorded for the variant U7A U10C U11C C13A
OUTPUT: 1.03

INPUT: Please list aptazyme ON/OFF ratio recorded for the variant U7C U8A G9U U11C C12G C13A
OUTPUT: 1.17

INPUT: Please list aptazyme ON/OFF ratio recorded for the variant U8C G9U U10G U11C C12G C13G
OUTPUT: 1.26

INPUT: Please list aptazyme ON/OFF ratio recorded for the variant U7C U8G G9U U10G U11C C12G C13U
OUTPUT: 1.08
